# Lookup of reported Response (nm) keyed by entry
assay.system: T1, hIL-18Rα ECD-Fc fusion protein (human, UniProt Q13478 22-329)
T1 construct: extracellular domain; captured on Protein A sensor
T1 sequence (looked up): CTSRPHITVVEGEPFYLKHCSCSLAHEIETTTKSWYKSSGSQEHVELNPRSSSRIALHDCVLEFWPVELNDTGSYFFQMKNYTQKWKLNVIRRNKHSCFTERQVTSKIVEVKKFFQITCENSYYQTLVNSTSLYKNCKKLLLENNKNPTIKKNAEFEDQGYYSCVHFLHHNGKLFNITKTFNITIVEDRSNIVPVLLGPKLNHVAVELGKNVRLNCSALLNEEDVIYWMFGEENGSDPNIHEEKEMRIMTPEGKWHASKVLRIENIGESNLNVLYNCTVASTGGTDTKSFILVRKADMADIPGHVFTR
assay.comment: BLI (Octet RED96), hIL-18Rα ECD-Fc on Protein A sensor; further: test concentration or dose not given here

| binder | units.symbol | modifier.sign | Response (nm) |
| --- | --- | --- | --- |
| IL-18 variant polypeptide WM10 (ligand, soluble, E. coli-made) YFPKLKSKLSVIRNLNDQVLFIDQGNRPLFEDMTDSDCRDNAPRTIFIISMYKDSQPRGMAVTISVKCEKISTLSCENKIISFKEMNPPDSIKDTKSDIIFFQRSVPGHDNKMQFESSSYEGYFLACEKERDLFKLILKKEDELGDRSIMFTVQNED | nm | < | 0.02 |
| IL-18 variant polypeptide M17 (ligand) YFPKLRSKLSVIRNLNDQVLFIDQGNRPLFEDMTDSDCRDNAPRTIFIISMYKLSTARGMAVTISVKCEKISTLSCENKIISFKEMNPPDGIKDTKSDIIFFQRSVPGHDNKMQFESSSYEGYFLACEKERDLFKLILKKEDELGDRSIMFTVQNED | nm | = | 0.0784 |
| IL-18 variant polypeptide M39 (ligand) YFPKLRSKLSVIRNLNDQVLFIDQGNRPLFEDMTDSDCRDNAPRTIFIISMYKWSPGRGMAVTISVKCEKISTLSCENKIISFKEMNPPDVIKDTKSDIIFFQLSVPGHDNKMQFESSSYEGYFLACEKERDLFKLILKKEDELGDRSIMFTVQNED | nm | = | 0.0605 |
| IL-18 variant polypeptide M22 (ligand) YFPKLRSKLSVIRNLNDQVLFIDQGNRPLFEDMTDSDCRDNAPRTIFIISMYKYSRGRGMAVTISVKCEKISTLSCENKIISFKEMNPPDKIKDTKSDIIFFQSSVPGHDNKMQFESSSYEGYFLACEKERDLFKLILKKEDELGDRSIMFTVQNED | nm | = | 0.0592 |
| IL-18 variant polypeptide M19 (ligand) YFPKLKSKLSVIRNLNDQVLFIDQGNRPLFEDMTDSDCRDNAPRTIFIISMYKHSEQRGMAVTISVKCEKISTLSCENKIISFKEMNPPDAIKDTKSDIIFFQRSVPGHDNKMQFESSSYEGYFLACEKERDLFKLILKKEDELGDRSIMFTVQNED | nm | = | 0.025 |
| IL-18 variant polypeptide M4 (ligand) YFPKLKSKLSVIRNLNDQVLFIDQGNRPLFEDMTDSDCRDNAPRTIFIISMYKWSGVRGMAVTISVKCEKISTLSCENKIISFKEMNPPDVIKDTKSDIIFFQFSVPGHDNKMQFESSSYEGYFLACEKERDLFKLILKKEDELGDRSIMFTVQNED | nm | = | 0.0326 |
